Measured values drawn from paper PMC8772704 for this set.

Mean accuracy (%), Table S7: recorded values
Procedure details: Autosampler stability at 4 °C of extracted antibiotic-spiked plasma/CAMHB samples
Condition parameters: plasma extracted samples, 7 h autosampler 4 °C; HQC: nominal mg/L CAZ 150, FEP 200, PIP 250, ATM 300, MEM 200, DOR 175, LVX 30, CEFT 250, TZB 87.5, TGC 20, AVI 30, FOF 1000
Enter your answer as a number in %; do not include the unit.

CO/N=C(\C(=O)N[C@@H]1C(=O)N2C(C(=O)[O-])=C(C[N+]3(C)CCCC3)CS[C@H]12)c1csc(N)n1 [Cefepime, cefepime] | 86.5
Cn1c(N)c(NC(=O)NCCN)c[n+]1CC1=C(C(=O)O)N2C(=O)[C@@H](NC(=O)/C(=N\OC(C)(C)C(=O)[O-])c3nsc(N)n3)[C@H]2SC1 | 105.1

-- ask Item under review: "C[C@@H](O)[C@H]1C(=O)N2C(C(=O)O)=C(S[C@@H]3CN[C@H](CNS(N)(=O)=O)C3)[C@H](C)[C@H]12" . Reported Mean accuracy (%), Table S7?
-- reply 98.9

-- ask Look at this compound and give its reported Mean accuracy (%), Table S7. "C[C@@H]1O[C@@H]1P(=O)(O)O"
-- reply 102.9

-- ask Form field: reported Mean accuracy (%), Table S7 of "C[C@]1(Cn2ccnn2)[C@H](C(=O)O)N2C(=O)C[C@H]2S1(=O)=O"
-- reply 111.3

-- ask Give its Mean accuracy (%), Table S7 value. Item: "CCN1CCN(C(=O)N[C@@H](C(=O)N[C@@H]2C(=O)N3[C@@H]2SC(C)(C)[C@@H]3C(=O)O)c2ccccc2)C(=O)C1=O"
-- reply 87.5
